Readings of growth at 0.1 µM for the listed compounds
Test system: SN12C
protocol_notes: Growth inhibition of human SN12C cells assessed as cell growth at 0.1 uM incubated for 48 hrs by sulforhodamine B assay relative to control
Type: functional
conditions: read-out: Activity
API: value field is a number in %; no unit string.

Recorded growth at 0.1 µM, per entry:
Give the reported growth at 0.1 µM for "O=C(Nc1cccc(-n2cc(-c3ccncc3)c(-c3cc(O)cc(Cl)c3)n2)c1)Nc1ccc(Cl)c(Cl)c1" (system: SN12C).
95

Same question, "COc1cc(Cl)cc(-c2nn(-c3cccc(NC(=O)c4ccc(N5CCOCC5)c(C(F)(F)F)c4)c3)cc2-c2ccncc2)c1" this time
95

Further cases:
Give the reported growth at 0.1 µM for "O=C(Nc1cccc(-n2cc(-c3ccncc3)c(-c3cc(O)cc(Cl)c3)n2)c1)Nc1ccc(Cl)c(C(F)(F)F)c1" (system: SN12C).
100
